# tested target: KRAS 4B G12C protein (Homo sapiens, UniProt P01116, G12C)
# Construct: This protein contained 188 amino acids in total, including an N-terminal 6-Histidine tag; made in house; host or cells: E. coli BL21
# measurement notes: In vitro covalent adduct formation (CAF) assay by LC-MS
# Format: binding
# particulars: 60 minutes; compound 10 μM, protein 5 μM, 22° C.; percentage of protein bound by the compound
value type: CAF (10 minutes/60 minutes) at 10 micromolar: 60 minutes (%)

Example entries begin here.
compound	unit label	measured number
C=CC(=O)N1CCN(c2nc(OC3CC3)nc3c2CN(C2CCc4ccccc42)C3)C[C@@H]1CC#N (stereo partly shown)	%	19
C=C(F)C(=O)N1CCN(c2nc(OC[C@@H]3CCCN3C)nc3c2CN(Cc2nc(N)cc(C)c2C(F)(F)F)C3)C[C@@H]1CC#N	%	86
C=CC(=O)N1CCN(c2nc(OC[C@@H]3CCCN3C)nc3c2CN(Cc2cc(OC(F)F)ccc2Cl)C3)C[C@@H]1CC#N	%	86
C=CC(=O)N1CCN(c2nc(OC[C@@H]3CCCN3C)nc3c2CN(C2CCc4ccccc42)C3)C[C@@H]1CC(F)(F)F (stereo partly shown)	%	5

1. C=CC(=O)N1CCN(c2nc(OC[C@@H]3CCCN3C)nc3c2CN(C(C)c2c(F)cccc2OC)C3)C[C@@H]1CC#N (stereo partly shown)
2. C=CC(=O)N1CCN(c2nc(OCC3CCCC3)nc3c2CN(Cc2c(F)cccc2OC)C3)C[C@@H]1CC#N
For 1 and 2 , which recorded CAF (10 minutes/60 minutes) at 10 micromolar: 60 minutes is lower? Identify your selection by its label.
2
